- Assay target: wildtype feline IL-31 (Feline_IL31_wildtype) (feline)
- Sequence (chain, as listed by the source limits assumed, form in doubt): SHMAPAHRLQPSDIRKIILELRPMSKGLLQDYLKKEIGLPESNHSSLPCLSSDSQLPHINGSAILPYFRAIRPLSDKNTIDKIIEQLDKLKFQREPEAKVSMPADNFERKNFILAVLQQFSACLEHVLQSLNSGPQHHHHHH
- Protocol details: SPR (Biacore), immobilised IL-31, 1:1 fit
Outcome measure: kon (M⁻¹ s⁻¹)
State the answer as a number, implicitly in M⁻¹ s⁻¹.

Any idea what kon was measured for Feline 15H05 1.1 FW3 (antibody, V domains shown) VH: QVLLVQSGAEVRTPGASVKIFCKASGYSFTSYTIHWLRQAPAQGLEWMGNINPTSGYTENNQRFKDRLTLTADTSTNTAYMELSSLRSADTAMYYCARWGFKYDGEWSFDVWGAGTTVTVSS VL: EIQMTQSPSSLSASPGDRVTITCRASQGISIWLSWYQQKPGKVPKLLIYKASNLHIGVPPRFSGSGSGTHFTLTITSLQPEDIATYYCLQSQTYPLTFGGGTKLEIK ?
214000

Any idea what kon was measured for Feline 11E12 1.1 FW2 (antibody, V domains shown) VH: QVLLVQSGAEVKKPGASVKIFCKASGYSFTYYDINWLRQAPEQGLEWMGWIFPGDGGTKYNETFKGRLTLTADTSTNTVYMELSSLRSADTAMYYCARGGTSVIRDAMDYWGQGALVTVSS VL: EIQMTQSPSSLSASPGDRVTITCRASESVDNYGISFMHWYQQKPGQPPKLLIYRASNLESGVPSRFSGSGSGTDFTLTISSLEPEDAATYYCQQSNKDPLTFGQGT ?
852000

Any idea what kon was measured for Feline 15H05 3.1 (antibody, V domains shown) VH: QVLLVQSGAEVRKPGASVKIFCKASGYSFTSYTIHWLRQAPEQGLEWMGNINPTSGYTENNQRFKDRLTLTADTSTNTAYMELSSLRSADTAMYYCARWGFKYDGEWSFDVWGAGTTVTVSS VL: EIQMTQSPSSLSASPGDRVTITCRASQGISIWLSWYQQKPGKVPKLLIYKASNLHIGVPSRFSGSGSGTDFTLTISSLEPEDAATYYCLQSQTYPLTFGGGTKLEIK ?
44700
